test-method-notes: Selectivity index, ratio of CC50 for cytotoxicity against African green monkey Vero cells to IC50 for antiparasitic activity against Toxoplasma gondii RH tachyzoites infected in African monkey Vero cells
Type: toxicity, cell-based
condition-context: read-out: Ratio CC50/IC50
measured-parameter: selectivity ratio

O=C1C2=C(Nc3[nH]c(=O)[nH]c(=O)c3C2c2cccc(O)c2)c2ccccc21 (stereo not drawn) :: 0.4
COc1cc(-c2c3c(nc4[nH]c(=O)[nH]c(=O)c24)-c2ccccc2C3=O)cc(OC)c1OC :: 0.97
COc1cc(-c2c3c(nc4[nH]c(=O)[nH]c(=O)c24)-c2ccccc2C3=O)cc(I)c1OC :: 0.9
O=C1C(O)=C([C@H]2CC[C@H](c3ccc(Cl)cc3)CC2)C(=O)c2ccccc21 :: 136
COc1ccc(C2C3=C(Nc4[nH]c(=O)[nH]c(=O)c42)c2ccccc2C3=O)cc1Br (stereo not drawn) :: 0.96

// query Give me measured selectivity ratio, please, for this molecule: COc1cc(-c2c3c(nc4[nH]c(=O)[nH]c(=O)c24)-c2ccccc2C3=O)cc(Br)c1OC
// result 1.24

// query Read off the recorded selectivity ratio for COc1ccc(-c2c3c(nc4[nH]c(=O)[nH]c(=O)c24)-c2ccccc2C3=O)cc1OC
// result 0.78

// query Report selectivity ratio for COc1ccc(-c2c3c(nc4[nH]c(=O)[nH]c(=O)c24)-c2ccccc2C3=O)cc1Br
// result 0.91

// query Give selectivity ratio for COc1ccc(C2C3=C(Nc4[nH]c(=O)[nH]c(=O)c42)c2ccccc2C3=O)cc1C (stereo not drawn)
// result 0.3

// query Provide selectivity ratio value for the following molecule: COc1cc(C2C3=C(Nc4[nH]c(=O)[nH]c(=O)c42)c2ccccc2C3=O)cc(Cl)c1OC (stereo not drawn)
// result 0.73

// query Let me know recorded selectivity ratio for COc1cc(-c2c3c(nc4[nH]c(=O)[nH]c(=O)c24)-c2ccccc2C3=O)cc(Cl)c1OC , thanks.
// result 1.23

The measurements presented in this section are drawn from ChEMBL document CHEMBL5325460.
